- system.tested: purified human fibrinogen receptor (IIb^β 3) (Homo sapiens, UniProt P05106+P08514)
- Sequence (P08514 32-887 limits assumed): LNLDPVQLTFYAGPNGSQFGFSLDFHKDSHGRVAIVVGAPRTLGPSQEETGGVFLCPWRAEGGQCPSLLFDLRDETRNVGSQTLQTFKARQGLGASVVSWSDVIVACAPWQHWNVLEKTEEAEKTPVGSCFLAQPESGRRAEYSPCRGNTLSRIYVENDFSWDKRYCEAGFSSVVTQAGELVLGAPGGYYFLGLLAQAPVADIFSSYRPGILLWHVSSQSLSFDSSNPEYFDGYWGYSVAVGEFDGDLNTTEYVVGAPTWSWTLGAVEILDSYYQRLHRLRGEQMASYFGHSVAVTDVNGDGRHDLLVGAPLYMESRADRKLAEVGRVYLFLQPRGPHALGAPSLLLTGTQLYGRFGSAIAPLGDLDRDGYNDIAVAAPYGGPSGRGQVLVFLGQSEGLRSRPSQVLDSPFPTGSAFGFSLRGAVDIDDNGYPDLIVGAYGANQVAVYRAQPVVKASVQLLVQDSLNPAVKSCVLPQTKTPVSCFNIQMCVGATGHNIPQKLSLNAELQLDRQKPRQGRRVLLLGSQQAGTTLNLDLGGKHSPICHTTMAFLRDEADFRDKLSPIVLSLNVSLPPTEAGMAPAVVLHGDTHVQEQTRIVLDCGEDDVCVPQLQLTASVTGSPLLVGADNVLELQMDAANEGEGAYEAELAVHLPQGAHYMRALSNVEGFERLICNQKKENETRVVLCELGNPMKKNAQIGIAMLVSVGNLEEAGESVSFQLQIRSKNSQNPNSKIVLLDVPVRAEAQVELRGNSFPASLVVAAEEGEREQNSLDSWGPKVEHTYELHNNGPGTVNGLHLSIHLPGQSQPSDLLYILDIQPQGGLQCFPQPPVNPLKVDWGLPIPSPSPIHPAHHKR
- Sequence (P08514 891-1039 partner limits assumed): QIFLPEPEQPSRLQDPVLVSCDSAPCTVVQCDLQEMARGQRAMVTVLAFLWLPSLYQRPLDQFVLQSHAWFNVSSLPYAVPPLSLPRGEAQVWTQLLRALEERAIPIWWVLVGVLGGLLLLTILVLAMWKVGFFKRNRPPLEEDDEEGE
- Sequence (P05106 27-788): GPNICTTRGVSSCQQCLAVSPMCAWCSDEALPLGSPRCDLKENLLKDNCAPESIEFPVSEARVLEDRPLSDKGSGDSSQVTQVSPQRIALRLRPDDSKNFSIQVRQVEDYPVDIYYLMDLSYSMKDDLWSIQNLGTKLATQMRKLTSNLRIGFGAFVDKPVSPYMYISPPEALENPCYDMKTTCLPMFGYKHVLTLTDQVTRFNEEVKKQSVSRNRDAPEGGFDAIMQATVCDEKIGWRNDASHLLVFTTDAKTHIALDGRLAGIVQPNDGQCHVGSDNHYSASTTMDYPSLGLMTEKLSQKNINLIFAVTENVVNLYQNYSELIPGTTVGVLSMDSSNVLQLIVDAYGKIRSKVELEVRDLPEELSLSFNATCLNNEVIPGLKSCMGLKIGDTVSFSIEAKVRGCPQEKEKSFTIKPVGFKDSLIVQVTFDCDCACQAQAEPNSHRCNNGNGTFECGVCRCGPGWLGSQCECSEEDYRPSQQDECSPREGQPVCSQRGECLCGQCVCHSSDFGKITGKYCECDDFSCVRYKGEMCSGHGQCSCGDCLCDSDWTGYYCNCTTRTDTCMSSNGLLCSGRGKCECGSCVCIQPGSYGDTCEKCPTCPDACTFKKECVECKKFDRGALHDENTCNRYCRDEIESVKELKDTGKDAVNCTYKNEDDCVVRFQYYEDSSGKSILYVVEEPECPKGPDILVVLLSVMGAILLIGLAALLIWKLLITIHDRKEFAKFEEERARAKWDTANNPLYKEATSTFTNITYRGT
- method.notes: Solid phase receptor assay, competitive binding to purified human fibrinogen receptor
- cond: biotinylated ligand 1 nM final, two hours, room temperature
- Method: The compounds of the above invention were tested in the in vitro human platelet aggregation assay in platelet rich plasma (PRP) and in the competitive solid phase binding assay against purified human fibrinogen and vitronectin receptors. […] These assays were essentially the same as previously reported. […] The plate was read with a microtiter plate reader at a wavelength of 450 nm and when the maximum-binding control wells reached an absorbance of about 1.0, the final A450 were recorded for analysis. […]
measured.parameter: pIC50
When answering, recall that pIC50 equals minus log10 of the concentration in mol/L, and write that number alone.

Would you please look over these solved cases?
For this compound ( N=C(N)c1ccc(CCCCC(=O)NC(CC(=O)O)C(=O)OC2COC3C(O)COC23)cc1 (stereo not shown) [Example 5] ), measured pIC50 is 8.89

For this compound ( N=C(N)c1ccc(NC(=O)CCC(=O)NC(CC(=O)O)C(=O)O[C@H]2CO[C@H]3[C@@H]2OC[C@H]3O[N+](=O)[O-])cc1 (stereo partly shown) [Example 6] ), measured pIC50 is 9.60

***
For this compound ( N=C(N)c1ccc(CCCCC(=O)NC(CC(=O)O)C(=O)O[C@H]2CO[C@H]3[C@@H]2OC[C@H]3O[N+](=O)[O-])cc1 (stereo partly shown) [Example 3] ), measured pIC50 is 8.51

For this compound ( N=C(N)c1ccc(NC(=O)CCC(=O)NC(CC(=O)O)C(=O)O[C@H]2CO[C@H]3[C@@H]2OC[C@H]3O)cc1 (stereo partly shown) [Example 8] ), measured pIC50 is 9.15
